System: HIV-1 protease (Human immunodeficiency virus type 1 group M subtype B)
Construct: Purified HIV-1 protease was obtained as described above; made in house; host or cells: E. coli K12 L507/pHP10D
Protocol Notes: biochemical
Assay Conditions: read-out: Fluorescence Assay IC50 (converted)
In this section we review reported IC50 values for a set of molecules.
Note: a bare number is incomplete; add the unit.

>  <Molecule>
CC(C)(C)NC(=O)c1ccccc1C[C@@H](O)[C@H](Cc1ccccc1)NC(=O)[C@H](CC#N)NC(=O)NCc1cccc2ccccc12 (relative stereo)

>  <IC50>
0.645 nM

$$$$
>  <Molecule>
CN1Cc2ccccc2CC1C(=O)N[C@@H](CC#N)C(=O)N[C@@H](Cc1ccccc1)[C@H](O)Cc1ccccc1C(=O)NC(C)(C)C (relative stereo)

>  <IC50>
89.5 nM

$$$$
>  <Molecule>
CC(C)(C)NC(=O)c1ccccc1C[C@@H](O)[C@H](Cc1ccccc1)NC(=O)[C@H](CC#N)NC(=O)c1ccc2ccccc2n1

>  <IC50>
1.86 nM

$$$$
>  <Molecule>
CC(C)(C)NC(=O)c1ccccc1C[C@@H](O)[C@H](Cc1ccccc1)NC(=O)[C@H](CC(=O)OCc1ccccn1)NC(=O)c1ccc2ccccc2n1

>  <IC50>
1.85 nM

$$$$

The recorded IC50 with HIV-1 protease (Human immunodeficiency virus type 1 group M subtype B) for CN(C)CCNC(=O)C[C@H](NC(=O)c1ccc2ccccc2n1)C(=O)N[C@@H](Cc1ccccc1)[C@H](O)Cc1ccccc1C(=O)NC(C)(C)C (relative stereo) was 2.79 nM

----------
System: HIV-1 protease (Human immunodeficiency virus type 1 group M subtype B)
Construct: Purified HIV-1 protease was obtained as described above; made in house; host or cells: E. coli K12 L507/pHP10D
Protocol Notes: biochemical
Assay Conditions: read-out: Fluorescence Assay IC50 (converted)
Measure: log10 IC50 (log10 of the value in nM)
Reminder: these figures are log10 of reported IC50, in nM before transformation.

Previously resolved entries follow.
>  <Structure>
CC(C)(C)NC(=O)c1ccccc1C[C@@H](O)[C@H](Cc1ccccc1)NC(=O)[C@H](CC(=O)NN)NC(=O)c1ccc2ccccc2n1

>  <Measure>
log10 IC50

>  <Recorded Result>
0.05

$$$$
>  <Structure>
CC(C)(C)NC(=O)c1ccccc1C[C@@H](O)[C@H](Cc1ccccc1)NC(=O)[C@H](CC(=O)OCc1ccccc1)NC(=O)OCc1ccccc1

>  <Measure>
log10 IC50

>  <Recorded Result>
1.03

$$$$

The molecule identified as CC(C)(C)NC(=O)c1ccccc1C[C@@H](O)[C@H](Cc1ccccc1)NC(=O)[C@H](CS(N)(=O)=O)NC(=O)c1ccc2ccccc2n1 registered its log10 IC50 at 0.62

The value of log10 IC50 measured for the molecule CONC(=O)C[C@H](NC(=O)c1ccc2ccccc2n1)C(=O)N[C@@H](Cc1ccccc1)[C@H](O)Cc1ccccc1C(=O)NC(C)(C)C turned out to be -0.11

Notebook: CC(C)(C)NC(=O)c1ccccc1C[C@@H](O)[C@H](Cc1ccccc1)NC(=O)[C@H](CC(=O)OCc1ccccc1)NC(=O)c1ccc2ccccc2n1 , log10 IC50 read as -0.07
